The following molecules are shown together with reported logP values.
Experiment: Partition coefficient (logP)
Type: physicochemical
Conditions: octanol/water; read-out: logP
The reply should be a number, written without any unit.

[Q] Give its logP value. Item: Nc1ncnc2c1ncn2[C@H]1C=C[C@@H](COP2(=O)OCc3ccccc3O2)O1 (some centres undefined)
[A] 0.36

[Q] Similarly, Nc1ncnc2c1ncn2[C@H]1CC[C@@H](CO)O1 ?
[A] -0.28

[Q] Similarly, COc1ccc2c(c1)COP(=O)(OCC1CCC(n3cnc4c(N)ncnc43)O1)O2 (centres undefined) ?
[A] 0.64

[Q] Similarly, COc1ccc2c(c1)COP(=O)(OC[C@@H]1C=C[C@H](n3cnc4c(N)ncnc43)O1)O2 (stereo in doubt; 10b (s)) ?
[A] 0.41

[Q] Similarly, Cc1cccc2c1OP(=O)(OCC1CCC(n3cnc4c(N)ncnc43)O1)OC2 (centres undefined) ?
[A] 0.88

Others:
[Q] Give its logP value. Item: Cc1cccc2c1OP(=O)(OC[C@@H]1C=C[C@H](n3cnc4c(N)ncnc43)O1)OC2 (some centres undefined)
[A] 0.63

[Q] Similarly, Cc1cc(C)c2c(c1)COP(=O)(OC[C@@H]1C=C[C@H](n3cnc4c(N)ncnc43)O1)O2 (some centres undefined) ?
[A] 0.95

[Q] Similarly, Cc1cccc2c1OP(=O)(OCC1CCC(n3cnc4c(O)ncnc43)O1)OC2 (centres undefined) ?
[A] 0.14

[Q] Similarly, Cc1cc(C)c2c(c1)COP(=O)(OCC1CCC(n3cnc4c(N)ncnc43)O1)O2 (centres undefined) ?
[A] 1.35
